tested_system: Estrogen receptor (Homo sapiens)
assay_method_text: Displacement of [3H]estradiol from human ERalpha after 18 to 24 hrs
Decide using RBA alone. Strictly below 0.1%: t. Equal to or above 0.1%: f.

# strict comparison: is reported RBA < 0.1%? input = O=S(=O)(Oc1ccc(O)cc1)[C@H]1C[C@H]2C(c3ccc(O)cc3)=C(c3ccc(O)cc3)[C@@H]1[S+]2[O-] (relative stereo)
t

Consider next the compound O=C1[C@@H]2[C@H](C(=O)N1c1ccccc1)[C@@H]1C(c3ccc(O)cc3)=C(c3ccc(O)cc3)[C@H]2[S+]1[O-] (mixture of isomers) in the same way.
t

Consider next the compound Cc1ccc(C2=C(c3ccc(C)cc3)[C@H]3[C@@H](S(=O)(=O)Oc4ccc(O)cc4)C[C@@H]2[S+]3[O-])cc1 (relative stereo) in the same way.
t

Consider next the compound Cc1cc(O)ccc1C1=C(c2ccc(O)cc2C)[C@H]2[C@@H](S(=O)(=O)Oc3ccccc3Cl)C[C@@H]1[S+]2[O-] (relative stereo) in the same way.
f

Consider next the compound Cc1cc(O)ccc1C1=C(c2ccc(O)cc2C)[C@H]2[C@@H](S(=O)(=O)Oc3ccccc3Br)C[C@@H]1[S+]2[O-] (relative stereo) in the same way.
f

Consider next the compound Cc1cc(O)ccc1C1=C(c2ccc(O)cc2C)[C@H]2[C@@H](S(=O)(=O)Oc3ccccc3F)C[C@@H]1[S+]2[O-] (relative stereo) in the same way.
f

Consider next the compound Cc1cc(C2=C(c3ccc(O)c(C)c3)[C@H]3[C@@H](S(=O)(=O)Oc4ccc(O)cc4)C[C@@H]2[S+]3[O-])ccc1O (relative stereo) in the same way.
f
